# ASSAY TARGET: 5-hydroxytryptamine receptor 1A (Homo sapiens, UniProt P08908)
# Sequence (P08908 whole entry): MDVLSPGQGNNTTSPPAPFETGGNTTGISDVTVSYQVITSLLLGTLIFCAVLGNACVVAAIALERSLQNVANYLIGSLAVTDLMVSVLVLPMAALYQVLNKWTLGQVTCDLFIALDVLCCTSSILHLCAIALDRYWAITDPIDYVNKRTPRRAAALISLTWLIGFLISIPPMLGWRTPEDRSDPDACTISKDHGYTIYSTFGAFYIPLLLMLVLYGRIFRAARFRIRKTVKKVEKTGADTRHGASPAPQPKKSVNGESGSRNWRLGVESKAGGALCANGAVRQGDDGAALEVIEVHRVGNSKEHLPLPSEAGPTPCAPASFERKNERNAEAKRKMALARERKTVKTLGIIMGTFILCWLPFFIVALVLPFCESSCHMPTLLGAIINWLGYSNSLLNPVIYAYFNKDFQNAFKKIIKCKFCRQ
MEASUREMENT KIND: Ki (nM)
Report as a plain number; the unit nM is understood.

API: value(readout=Ki, system=5-hydroxytryptamine receptor 1A (Homo sapiens, UniProt P08908)) for record CNc1nc(Cl)c(SC)c(N2CCN(C)CC2)n1
430

Again, but for CNc1nc(Cl)c(Sc2ccccc2)c(N2CCN(C)CC2)n1
460

Again, but for Cc1nc(Cl)c(Sc2ccc(Cl)cc2)c(NC2CCN(Cc3ccccc3)CC2)n1
160

Again, but for O=C1[C@@H]2[C@H]3CC[C@H](C3)[C@@H]2C(=O)N1CCCCN1CCN(c2ncccn2)CC1
32

Again, but for Cc1nc(Cl)c(Sc2ccc(Cl)cc2)c(N2CCN(C)CC2)n1
1500

###

Give Ki for every item shown.
# ASSAY TARGET: D(2) dopamine receptor (Homo sapiens)
# Sequence (P14416 whole entry): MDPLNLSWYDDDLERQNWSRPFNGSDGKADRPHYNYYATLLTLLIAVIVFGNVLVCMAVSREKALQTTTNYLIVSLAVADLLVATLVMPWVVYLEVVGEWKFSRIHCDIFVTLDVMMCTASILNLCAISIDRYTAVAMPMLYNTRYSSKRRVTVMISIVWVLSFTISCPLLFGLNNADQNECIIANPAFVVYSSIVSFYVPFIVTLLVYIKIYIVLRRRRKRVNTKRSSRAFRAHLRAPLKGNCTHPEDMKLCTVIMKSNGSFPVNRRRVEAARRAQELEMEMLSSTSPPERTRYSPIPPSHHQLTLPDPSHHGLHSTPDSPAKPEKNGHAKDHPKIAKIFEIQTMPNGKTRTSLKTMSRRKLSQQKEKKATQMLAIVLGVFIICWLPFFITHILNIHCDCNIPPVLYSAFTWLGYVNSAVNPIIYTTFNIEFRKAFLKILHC
# PROTOCOL: Binding affinity to Dopamine receptor D2 was determined
Report as a plain number; the unit nM is understood.

Which value of Ki has been reported for CNc1nc(Cl)c(SC)c(N2CCN(C)CC2)n1 [MEZILAMINE] in the records?
5.4

Again, but for CNc1nc(Cl)c(Sc2ccccc2)c(N2CCN(C)CC2)n1
188

Again, but for O=C1[C@@H]2[C@H]3CC[C@H](C3)[C@@H]2C(=O)N1CCCCN1CCN(c2ncccn2)CC1 [TANDOSPIRONE]
460

Again, but for Cc1nc(Cl)c(Sc2ccc(Cl)cc2)c(N2CCN(C)CC2)n1
62

Again, but for CN1CCN(c2nc3ccccc3c(Cl)c2Sc2ccccc2)CC1
31

Again, but for Cc1nc(Cl)c(Sc2ccc(Cl)cc2)c(NC2CCN(Cc3ccccc3)CC2)n1
62

###

Give pKi for every item shown.
# ASSAY TARGET: D(4) dopamine receptor (Homo sapiens)
# Sequence (P21917 whole entry): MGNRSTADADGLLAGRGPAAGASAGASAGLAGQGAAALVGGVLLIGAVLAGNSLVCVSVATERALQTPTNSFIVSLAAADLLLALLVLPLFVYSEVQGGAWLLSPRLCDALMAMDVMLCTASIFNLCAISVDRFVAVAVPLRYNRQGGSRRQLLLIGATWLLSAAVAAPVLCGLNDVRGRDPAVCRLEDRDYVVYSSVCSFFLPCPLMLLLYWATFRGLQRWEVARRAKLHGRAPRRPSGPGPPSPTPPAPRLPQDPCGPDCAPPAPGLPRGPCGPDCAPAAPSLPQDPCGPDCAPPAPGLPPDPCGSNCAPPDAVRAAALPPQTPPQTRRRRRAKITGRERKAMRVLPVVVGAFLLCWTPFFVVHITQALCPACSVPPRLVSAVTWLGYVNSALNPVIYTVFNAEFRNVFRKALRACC
# PROTOCOL: Binding affinity to Dopamine receptor D4 was determined
Quick note: pKi means taking -log10 of the concentration in moles per liter.

Which value of pKi has been reported for O=C1[C@@H]2[C@H]3CC[C@H](C3)[C@@H]2C(=O)N1CCCCN1CCN(c2ncccn2)CC1 [TANDOSPIRONE] in the records?
8.14

Again, but for CNc1nc(Cl)c(Sc2ccccc2)c(N2CCN(C)CC2)n1
6.60

Again, but for CN1CCN(c2nc3ccccc3c(Cl)c2Sc2ccccc2)CC1
7.04

All values here come from ChEMBL document CHEMBL1134832.
